endpoint_label: melting point

Example results:
CS(=O)(=O)Nn1c(=O)[nH]c2cc(C(F)(F)F)c(-n3cnc(Br)c3)cc2c1=O : 229 to 233 °C
COC(=O)c1ccc(CC(C)N(CC(=O)c2ccc(OCc3ccccc3)c(NC(N)=O)c2)Cc2ccccc2)cc1 (stereo unspecified) : 140 to 145 °C
O=C(O)C(=O)N1CCC(Cc2ccc(Cl)cc2)CC1 : 147 to 148 °C
O=C(NC(Cc1c[nH]c2ccccc12)C(=O)CCc1cc(C(F)(F)F)cc(C(F)(F)F)c1)OCCc1ccccn1 (stereo unspecified) : 133 to 135 °C
COc1cc(Cc2cnc(N)nc2N)cc(OC)c1N(C)N=O : 249 to 250 °C

Query block: Requested field: melting point. Item: CCCc1sc(-c2ccccc2)nc1OC(=O)NC
Result block: 55 to 58 °C

Query block: Item Cc1ccc(N2C(=O)c3nccnc3C2OC(=O)N2CCNCC2)nc1 (stereo unspecified) has what recorded melting point?
Result block: 182 °C

Query block: Fill in the blank: the reported melting point of Cc1nc(N)nc(N)c1-c1cc(Cl)c([N+](=O)[O-])c(Cl)c1Cl is ____.
Result block: 313 to 315 °C

Query block: Could you share which melting point value was measured for CC1CCN2C=CC3=C(N=C12)C(c1c[nH]c2ccccc12)CC=C3 (stereo unspecified) ?
Result block: 190 to 192 °C

Query block: melting point for COC(=O)CCc1cnoc1-c1ccc(Br)cc1 ?
Result block: 58 to 59 °C

Query block: Request the reported melting point associated with O=C1CCC(c2ccccc2)(c2ccccc2)[C@@H]2CN(C(=O)Cc3c(Cl)cccc3Cl)C[C@H]12 (racemic)
Result block: 201 °C

Query block: For the compound O=C1CN(c2ccccc2)C(=O)N1C(=O)c1ccc(-c2ccccc2)cc1 , what melting point is on record?
Result block: 196 to 198 °C

Query block: Param item = Cc1ccc(NC(=O)c2cc(Br)c(Br)s2)cc1C ; retrieve measured melting point.
Result block: 216 to 217 °C

Query block: Need melting point of O=C(O)CCCc1cc2cc(Cl)ccc2n1S(=O)(=O)c1cccc2cccnc12 , thanks.
Result block: 217 to 219 °C

Query block: For the compound shown here, CC#CCOc1ccc(SC(C(=O)NO)C(C)C)cc1 (stereo unspecified) , give the reported melting point.
Result block: 128 °C

Query block: Quick one: melting point of Cc1nc(C)n2c1CN=C(c1ccccc1F)c1cc(Cl)ccc1-2 ?
Result block: 178 to 180 °C

---

melting point overview

// solved cases for melting point follow
Cc1ccc(C2COc3c(C)c(C)c(NC(=O)CC(C)(C)C)c(C)c32)cc1 (stereo unspecified) : 176 to 177 °C
C=CCc1cc(-c2cc(CC)cc(CC=C)c2O)ccc1O : 47 to 48 °C
CC(=C1SC(=O)NC1=O)c1ccc(OCCOc2c(-c3ccc(F)c(F)c3)n(C)c3cc(Cl)ccc3c2=O)cc1 : 296 to 298 °C
COC(=O)C1=C(C)NC(CC(=O)N2CCN(C3CC4CCC(C3)N4Cc3ccccc3OC)CC2)=C(C(=O)OC)C1c1c(Cl)cccc1Cl (stereo unspecified) : 205 to 213 °C
N#Cc1cccc(C2OCCO2)n1 : 64 °C

Query block: Query: melting point; subject: O=C(O)C1Cc2cc(-c3ccc(Cl)cc3)ccc2O1 (stereo unspecified)
Result block: 94 to 96 °C

Query block: State the recorded melting point for this entry: COc1cccc(C(CN2CCN(c3cncc(Cl)n3)CC2)C2(O)CCCCC2)c1 (stereo unspecified)
Result block: 157 to 158 °C

Query block: Form field: reported melting point of Clc1ccc(-c2onc3c(CBr)cccc23)c(Cl)c1
Result block: 108 to 110 °C

Query block: # input compound: CC1(c2cccc(N)c2)OCCO1 ; wanted: its melting point
Result block: 75 to 77 °C

Query block: Give the measured melting point of Cc1cccc(C)c1CNc1cc(C(=O)N2CC2)cc2c1nc(C)n2C .
Result block: 201 to 202 °C

Query block: Fill in: melting point of C[C@@H](C(=O)Nc1ccc(-n2nc(C(F)(F)F)cc2C2CC2)cc1)n1nnc2cccnc21 is ___
Result block: 186 to 191 °C

Query block: Requested read-out: melting point. Entry: O=C(O)CCCc1ccc(-c2ccc([N+](=O)[O-])cc2)cc1
Result block: 160 to 161 °C

Query block: If you can, please state the reported melting point value of CCOC(=O)c1sc(C)nc1SC(=O)N(C)C .
Result block: 84.5 to 85.5 °C

Query block: Request the reported melting point associated with COc1ccc(-c2cn(CCCC#N)c3c(OC)ccc(OC)c3c2=O)cc1
Result block: 126 to 127 °C

Query block: Need melting point of CCc1nc(Cc2ccc([N+](=O)[O-])cc2)no1 , thanks.
Result block: 69 to 70 °C

Query block: Give its melting point value. Item: CCOC(=O)/C=C/c1ccc(NC(=O)c2csc(NC(=O)NCc3ccccc3)n2)cc1
Result block: 207 °C
